Tested on: HEK293T viability, CellTiter-Glo ATP luminescence, 48 h
Assay Comment: HEK293T cell viability reduction, dose response, cytotoxicity control for LMP1 NF-kB inhibitor project, CellTiter-Glo luminescence, cherry-picks (AID 504861)
Calls of active or inactive are those of the source.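 How the source made its calls: active means compounds lowering cell viability signal with fitted half-maximal concentration at most ten times their highest tested concentration; inconclusive means flat fit with 30 to 70% signal loss, or poor fit; inactive means the rest.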
Readout Label: AC50

Known AC50 results, listed for orientation:
# Compound, AC50
measured = [
    ("Cc1csc(SCC(=O)c2cc(C)n(Cc3cccs3)c2C)n1", "> 26 µM (inactive)"),
    ("COc1ccc(C=C2CS(=O)(=O)CC(=Cc3ccc(OC)cc3)C2=O)cc1", "11.8 µM"),
    ("COc1ccccc1/C=C/C(=O)c1ccc(Cl)cc1", "12.4 µM"),
    ("O=C(N/N=C/c1c(O)ccc2ccccc12)c1ccc(Br)o1", "4.46 µM"),
    ("C/C(=N/NC(=O)c1ccc(C(C)(C)C)cc1)c1ccccn1", "3.38 µM"),
    ("Oc1cccc2ccc(Nc3ccccn3)nc12", "8.91 µM"),
    ("CC(=O)NC(c1ccc(Cl)cc1)c1ccc2cccnc2c1O (stereo unspecified)", "1.16 µM"),
    ("COc1ccc(/C=C/c2nc3ccccc3n2C)cc1", "2.27 µM"),
    ("O=C(N/N=C/c1c(O)ccc2ccccc12)c1cccnc1", "8.72 µM"),
    ("CCc1ccc(Nc2n[n+](-c3ccccc3)c(-c3c(Cl)cccc3Cl)s2)cc1", "11.2 µM"),
]

Parameter requested: AC50. Apply to each item below.
1. COc1cc2c(cc1OC)C(c1ccc(-c3ccccc3Cl)o1)=NCC2
2. Cc1nc(N)nc(N)c1/C=C/C(C)(C)c1ccc(Cl)cc1
3. CCOc1ccc(/C=C/[N+](=O)[O-])c2ccccc12

Out:
1: 21 µM; 2: < 0.011 µM; 3: 11.8 µM
